# method: Human pregnane X receptor (PXR) small molecule agonists, qHTS cell viability counter screen (AID 1346977); further: nearly all actives have a fitted effect of over 50% in size
# condition info: PXR-Luc HepG2 viability, CellTiter-Fluor, 24 h; series mostly up to 92.4 µM
Records with an inconclusive call do not appear. Calls of active or inactive are those of the source. The call rests on the fitted dose curve; in most records, active means well fitted cell-killing curve with a large enough effect in the repeat runs; inconclusive means weak or mixed curves, or effect the other way; inactive means flat fitted curve, though single readings scatter.
Labels: YES = active, NO = inactive

>>> label_class("CC(C)=CCC/C(C)=C/CC/C(C)=C/CO")
"NO"
>>> label_class("C=CCOc1ccccc1OCC(O)CNC(C)C (stereo not drawn)")
"NO"
>>> label_class("CCn1cc(C(=O)O)c(=O)c2cnc(N3CCNCC3)nc21")
"NO"
>>> label_class("CC(=O)NO")
"NO"
>>> label_class("CC(C)(C)Cl")
"NO"
>>> label_class("CC/C=C\\CCOC(=O)CC")
"NO"
>>> label_class("O=C(NCCO[N+](=O)[O-])c1cccnc1")
"NO"
>>> label_class("c1ccc(CNCCNCc2ccccc2)cc1")
"NO"
>>> label_class("COC(C)OC")
"NO"
>>> label_class("Nc1ccc([N+](=O)[O-])c(C(F)(F)F)c1")
"NO"
>>> label_class("COc1cc2nc(Cl)nc(N)c2cc1OC")
"NO"
>>> label_class("CN1Cc2cc(C(=O)N3CCC(C4CCNCC4)CC3)ccc2NC(CC(=O)O)C1=O (stereo not drawn)")
"NO"
>>> label_class("NCc1ccccc1Sc1ccccc1CO")
"NO"
>>> label_class("CC(COCCO)OCCO (stereo not drawn)")
"NO"
>>> label_class("CCCCc1nc2cccnc2n1Cc1ccc(-c2ccccc2-c2nnn[nH]2)cc1")
"NO"
>>> label_class("CC(C)Cc1ccc(C(C)C(=O)OCc2ccccn2)cc1 (stereo not drawn)")
"NO"
>>> label_class("CCCCCCCCCCO[C@@H]1O[C@H](CO)[C@@H](O)[C@H](O)[C@H]1O")
"NO"
>>> label_class("O=C(O)c1ccc(S(=O)(=O)O)cc1C(=O)O")
"NO"
>>> label_class("CN1CCC(=C2c3ccccc3Sc3ccccc32)CC1")
"YES"
>>> label_class("O=C1C(O)=C(O)C(=O)C(O)=C1O")
"NO"
>>> label_class("Cn1c(=O)cc(Oc2ccc(F)cc2F)c2cnc(NCC(C)(C)O)nc21")
"NO"
>>> label_class("NCCCN1CCOCC1")
"NO"
>>> label_class("CCNc1cc(O)ccc1C")
"NO"
>>> label_class("COc1ccc(C(=O)N2CCN(CC(=O)N3CCOCC3)CC2)cc1")
"NO"
>>> label_class("Nc1cccc([N+](=O)[O-])c1")
"NO"
>>> label_class("O=C(CS)Nc1ccccc1")
"NO"
>>> label_class("C=CCOC(=O)CCC1CCCCC1")
"NO"
>>> label_class("C=CC1CC2C=CC1C2 (stereo not drawn)")
"NO"
>>> label_class("Cc1ccc(C(=O)Oc2ccc(C(O)CNC(C)(C)C)cc2OC(=O)c2ccc(C)cc2)cc1 (stereo not drawn)")
"NO"
>>> label_class("CC(C)(O)c1ccc(CNC(=O)c2cccnc2Oc2ccc(F)cc2)cc1")
"NO"
>>> label_class("Cc1nn(C)c(Oc2ccccc2)c1/C=N/OCc1ccc(C(=O)OC(C)(C)C)cc1")
"YES"
>>> label_class("C=CC(=O)OCCOc1ccccc1")
"NO"
>>> label_class("CC(=O)c1ccc2c(c1)N(CCCN1CCC(CCO)CC1)c1ccccc1S2")
"YES"
>>> label_class("O=[N+]([O-])c1cccc(S(=O)(=O)O)c1")
"NO"
>>> label_class("COc1cc2nc(N3CCN(C(=O)C4COc5ccccc5O4)CC3)nc(N)c2cc1OC (stereo not drawn)")
"YES"
>>> label_class("CCCCCCCCO[C@@H]1O[C@H](CO)[C@@H](O)[C@H](O)[C@H]1O")
"NO"
>>> label_class("Cc1ccccc1S(=O)(=O)O")
"NO"
>>> label_class("C1CCCNCCC1")
"NO"
>>> label_class("CCOC(=O)C(F)(F)F")
"NO"
>>> label_class("C/C=C(/C(=C/C)c1ccc(OC(C)=O)cc1)c1ccc(OC(C)=O)cc1")
"NO"
>>> label_class("Nc1ccc(S(=O)(=O)Nc2ccccc2)cc1")
"NO"
>>> label_class("O=C1CCCCCCCCCCCC(=O)OCCO1")
"NO"
>>> label_class("CCCCCCCCCCCC(=O)OC[C@@H](O)[C@H]1OC[C@H](OCCO)[C@H]1OCCO")
"NO"
>>> label_class("Cc1ccc(C(C)OC(=O)C2(C)CCC(C(=O)O)C2(C)C)cc1 (stereo not drawn)")
"NO"
>>> label_class("O=C(O)c1ccc(-n2nc(-c3ccccc3O)nc2-c2ccccc2O)cc1")
"NO"
>>> label_class("Clc1ccc2c(c1)CCc1cccnc1C2=C1CCNCC1")
"YES"
>>> label_class("CCCCC(CC)COC(=O)CCCCCCCCC(=O)OCC(CC)CCCC (stereo not drawn)")
"NO"
>>> label_class("OCCN1CCN(CCCN2c3ccccc3C=Cc3ccccc32)CC1")
"YES"
>>> label_class("C[C@@H](c1ncncc1F)C(O)(Cn1cncn1)c1ccc(F)cc1F (stereo partly drawn)")
"NO"
>>> label_class("CCC(C)(C)CC")
"NO"
>>> label_class("CCCCC(CC)COC(=O)COc1ccc(Cl)cc1Cl (stereo not drawn)")
"NO"
>>> label_class("CC(=O)OC[C@H]1O[C@@H](n2ncc(=O)[nH]c2=O)[C@H](OC(C)=O)[C@@H]1OC(C)=O")
"NO"
>>> label_class("S=C([S-])NCCNC(=S)[S-].[Mn+2]")
"NO"

This collection of values is drawn from PubChem BioAssay (Tox21).
